- TEST SYSTEM: Doublecortin-like kinase 1 (DCLK1) (Homo sapiens)
- Sequence (O15075 whole entry): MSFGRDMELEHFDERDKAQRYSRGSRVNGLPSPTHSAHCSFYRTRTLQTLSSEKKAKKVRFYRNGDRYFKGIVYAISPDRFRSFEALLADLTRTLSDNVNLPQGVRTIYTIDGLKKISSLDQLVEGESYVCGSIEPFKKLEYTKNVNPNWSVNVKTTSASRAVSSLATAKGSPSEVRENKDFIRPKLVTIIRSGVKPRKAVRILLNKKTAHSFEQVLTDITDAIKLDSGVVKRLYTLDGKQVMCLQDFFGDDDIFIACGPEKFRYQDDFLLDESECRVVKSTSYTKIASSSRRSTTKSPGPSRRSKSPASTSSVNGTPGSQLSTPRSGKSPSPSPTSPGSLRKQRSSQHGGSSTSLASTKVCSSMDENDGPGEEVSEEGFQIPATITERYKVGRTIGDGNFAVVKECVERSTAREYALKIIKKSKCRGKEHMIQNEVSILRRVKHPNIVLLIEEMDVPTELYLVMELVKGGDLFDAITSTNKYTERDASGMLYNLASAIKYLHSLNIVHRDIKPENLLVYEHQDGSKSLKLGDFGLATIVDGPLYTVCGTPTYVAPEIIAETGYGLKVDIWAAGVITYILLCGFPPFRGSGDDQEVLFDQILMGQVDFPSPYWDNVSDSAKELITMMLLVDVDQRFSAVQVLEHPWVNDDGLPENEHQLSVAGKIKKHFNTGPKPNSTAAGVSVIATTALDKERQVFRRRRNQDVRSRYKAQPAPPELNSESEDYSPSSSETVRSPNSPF
VALUE TYPE: IC50
The reply should read as a number followed by its unit.

Ask: Notebook entry, Doublecortin-like kinase 1 (DCLK1) (Homo sapiens) assay: IC50 of CN1C(=O)c2ccccc2N(C)c2nc(Nc3cnn(C4CCNCC4)c3)ncc21 [XMD-17-51] = ?
Result: 14.6 nM
